target: human ether-à-go-go-related gene (hERG) potassium channel (human, UniProt Q12809); test: primary screen, population patch clamp on CHO cells stably expressing hERG; higher = less effect of the substance;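 note: peak tail current of the secondary pulse compared with the same well before compound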
Sequence (Q12809 whole entry, looked up): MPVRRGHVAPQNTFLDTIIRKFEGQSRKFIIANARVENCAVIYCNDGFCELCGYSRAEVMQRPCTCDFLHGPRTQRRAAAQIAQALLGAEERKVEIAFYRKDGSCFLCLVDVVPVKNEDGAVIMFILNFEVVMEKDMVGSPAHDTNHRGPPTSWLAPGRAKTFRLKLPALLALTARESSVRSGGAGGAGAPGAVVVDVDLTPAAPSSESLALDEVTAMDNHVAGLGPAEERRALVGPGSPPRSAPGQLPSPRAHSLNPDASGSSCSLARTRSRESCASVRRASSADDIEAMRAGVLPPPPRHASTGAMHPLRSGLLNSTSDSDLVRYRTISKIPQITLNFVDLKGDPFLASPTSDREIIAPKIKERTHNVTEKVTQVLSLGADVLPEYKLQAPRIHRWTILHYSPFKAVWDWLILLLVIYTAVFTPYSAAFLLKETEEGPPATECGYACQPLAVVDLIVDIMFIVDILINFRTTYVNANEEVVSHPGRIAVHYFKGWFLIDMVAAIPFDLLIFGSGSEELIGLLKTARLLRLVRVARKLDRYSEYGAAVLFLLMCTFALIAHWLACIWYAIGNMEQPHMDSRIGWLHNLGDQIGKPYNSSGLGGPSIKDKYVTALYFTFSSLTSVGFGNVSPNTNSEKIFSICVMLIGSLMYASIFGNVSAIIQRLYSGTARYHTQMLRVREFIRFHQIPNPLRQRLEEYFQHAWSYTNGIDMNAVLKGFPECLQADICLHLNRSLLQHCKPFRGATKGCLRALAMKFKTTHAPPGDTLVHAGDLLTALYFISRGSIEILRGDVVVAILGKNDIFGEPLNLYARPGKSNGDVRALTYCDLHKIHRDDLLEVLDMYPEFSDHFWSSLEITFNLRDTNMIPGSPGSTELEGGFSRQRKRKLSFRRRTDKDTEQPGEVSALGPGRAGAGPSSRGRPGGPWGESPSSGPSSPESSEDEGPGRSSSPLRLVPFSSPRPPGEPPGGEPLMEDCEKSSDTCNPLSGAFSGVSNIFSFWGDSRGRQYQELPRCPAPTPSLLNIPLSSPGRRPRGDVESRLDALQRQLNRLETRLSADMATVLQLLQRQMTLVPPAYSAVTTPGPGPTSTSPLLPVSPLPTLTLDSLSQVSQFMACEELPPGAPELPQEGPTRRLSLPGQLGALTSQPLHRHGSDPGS
The whole screen tested about 310,000 compounds, of which about 14,000 (4.5%) showed an effect of 50% or more. The effect is printed as a negative number. This is one part of a sample in which strong results are shown more often than they occur.
This listing pairs compounds with measured hERG current change (%, negative = inhibition) at 10uM.
Reply numerically in %, unit not repeated.

>>> print(df.to_string())
                                   compound  result_value
0  COc1ccc(N2CCN(C(=O)CCC(=O)NNc3nc4ccccc4c4nc(C)nn34)CC2)cc1         -29.1

[ask] # hERG current change (%, negative = inhibition) at 10uM lookup, item CN1CCc2nc3sc(C(=O)NC4CC4)c(N)c3cc2C1
[reply] 9.22

[ask] Also check CN1CCN(C(=O)CCc2nc3ccccc3c(=O)[nH]2)CC1
[reply] 21.9

[ask] What do we get for CC(=O)N1CCN(C(=O)CCc2nc3ccccc3c(=O)[nH]2)CC1 ?
[reply] 2.7

[ask] # iterate: O=C(c1cc2cc(Br)ccc2[nH]1)N1CCc2ccccc21
[reply] 14

[ask] Subsequent entry: Cc1ccc(C(=O)NCCNC(=O)c2ccccn2)cc1
[reply] 12.9

[ask] Item: OCCC1CN(Cc2cccn2-c2ccccn2)CCN1Cc1ccccc1 (stereo not shown)
[reply] -76.5

These data points were gathered from paper PMC4336329.
